- System: adult mongrel dogs
- protocol.text: Renal vasodilating activity in anesthetized dogs
- Assay type: in vivo, mongrel dog
- reported.conditions: Canis lupus familiaris, read-out: RBF: percent change in renal blood flow, dose 6.2 mpk, relative to controls
property.label: change in vivo at 6.2 mg/kg (%)
The answer is to be given in %; state only the numeric part.

Look over these answered cases.
CCCCNC(=O)Nc1c(OC(=O)N(CC)CC)nc(C)c2cc(OC)c(OC)cc12 [Cmpd 38]
34
COc1cc2c(C)nc(OC(=O)N3CCCC3)c([N+](=O)[O-])c2cc1OC [Cmpd 52]
41

Qu. Give me measured change in vivo at 6.2 mg/kg, please, for this compound: CCOc1cc2c(C)nc(OC(=O)N3CCN(C(=O)OC(C)(C)C)CC3)c([N+](=O)[O-])c2cc1OC [Cmpd 69]
Ans. 24

Qu. Report measured change in vivo at 6.2 mg/kg; entry is COc1cc2c(C)nc(OC(=O)N(C)C)c([N+](=O)[O-])c2cc1OC [Cmpd 13]
Ans. 8

Qu. Provide only the value of recorded change in vivo at 6.2 mg/kg for CCOc1cc2c([N+](=O)[O-])c(OC(=O)N(C)C)nc(C)c2cc1OC [Cmpd 24]
Ans. 22

Qu. Give a short answer stating reported change in vivo at 6.2 mg/kg for COc1cc2c(C)nc(OC(=O)N(c3ccccc3)c3ccccc3)c([N+](=O)[O-])c2cc1OC [Cmpd 34] .
Ans. 37

Qu. Could you please provide reported change in vivo at 6.2 mg/kg for CCOc1cc2c(C)nc(OC(=O)N(CC)CC)c([N+](=O)[O-])c2cc1OC [Cmpd 28] ? Thanks!
Ans. 50

Qu. Hello, please tell me recorded change in vivo at 6.2 mg/kg for this one: CCOc1cc2c(C)nc(OC(=O)N(C)C)c([N+](=O)[O-])c2cc1OC [Cmpd 10]
Ans. 46

====

- assay.target: Phosphodiesterase Fraction III (Canis lupus familiaris)
- Construct: The fraction III enzyme was isolated as an isomzyme from the crude canine heart homogenate; from tissue; host or cells: canine heart (crude homogenate, ion exchange chromatography)
- Sequence (A0A8I3NYE0 1-1135): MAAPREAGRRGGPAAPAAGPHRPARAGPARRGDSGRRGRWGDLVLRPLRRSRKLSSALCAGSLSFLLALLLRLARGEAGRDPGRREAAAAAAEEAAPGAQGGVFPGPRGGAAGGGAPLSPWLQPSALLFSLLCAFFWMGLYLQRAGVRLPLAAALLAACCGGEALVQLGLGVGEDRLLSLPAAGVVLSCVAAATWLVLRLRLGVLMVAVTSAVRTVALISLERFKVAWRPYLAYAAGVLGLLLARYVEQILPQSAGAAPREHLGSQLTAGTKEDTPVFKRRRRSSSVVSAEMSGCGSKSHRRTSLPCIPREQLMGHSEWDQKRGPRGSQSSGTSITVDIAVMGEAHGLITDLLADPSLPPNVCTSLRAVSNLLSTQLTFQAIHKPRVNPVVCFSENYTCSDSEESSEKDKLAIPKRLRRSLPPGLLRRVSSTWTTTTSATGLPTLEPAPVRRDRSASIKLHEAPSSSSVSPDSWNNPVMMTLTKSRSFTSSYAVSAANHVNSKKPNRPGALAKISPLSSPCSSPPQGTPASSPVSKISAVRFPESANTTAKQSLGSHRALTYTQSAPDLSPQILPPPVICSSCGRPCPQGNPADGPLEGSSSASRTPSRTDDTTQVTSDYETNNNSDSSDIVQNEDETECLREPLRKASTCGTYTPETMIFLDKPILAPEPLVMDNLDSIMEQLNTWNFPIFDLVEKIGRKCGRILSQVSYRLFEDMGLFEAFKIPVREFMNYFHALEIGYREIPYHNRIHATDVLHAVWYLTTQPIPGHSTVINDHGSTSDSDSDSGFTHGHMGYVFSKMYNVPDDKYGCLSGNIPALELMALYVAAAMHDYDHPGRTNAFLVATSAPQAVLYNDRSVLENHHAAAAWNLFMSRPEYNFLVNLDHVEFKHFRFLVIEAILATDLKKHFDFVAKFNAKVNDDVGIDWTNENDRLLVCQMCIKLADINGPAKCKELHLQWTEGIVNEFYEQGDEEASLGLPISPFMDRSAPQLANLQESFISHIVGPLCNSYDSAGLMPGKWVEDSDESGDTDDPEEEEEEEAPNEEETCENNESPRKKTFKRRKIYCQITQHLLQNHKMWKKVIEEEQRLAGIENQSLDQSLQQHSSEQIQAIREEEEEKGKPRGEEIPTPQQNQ
- protocol.text: Inhibition of phosphodiesterase fraction III activity
- Assay type: biochemical, canine
- reported.conditions: cyclic AMP 0.10-1.0 μM, pH 7.4; enzyme from canine heart homogenate; read-out: IC50
pIC50: −log10 of the molar value.
// bucketize pIC50: low = under 4, medium = from 4 up to 5, high = 5 and over

Example entries begin here.
COC(=O)c1c(OC(C)C)nc(C)c2cc(OC)c(OC)cc12
low
CCOc1cc2c(C)nc(OC(=O)c3ccc(OC)cc3)c([N+](=O)[O-])c2cc1OC
medium
CCOc1nc(C)c2cc(OC)c(OC)cc2c1C(=O)OC
medium
COc1cc2c(C)nc(OS(=O)(=O)N(C)C)c(N)c2cc1OC [Cmpd 63]
low
CCOc1cc2c([N+](=O)[O-])c(OC(C)=O)nc(C)c2cc1OC
medium

Qu. Dear colleague, I would appreciate it if you could identify the bin for CCOc1cc2c(C)nc(OC(C)=O)c([N+](=O)[O-])c2cc1OC and reply at your convenience.
Ans. high

Qu. Bin? CCOc1cc2c(C)nc(OS(=O)(=O)N(C)C)c([N+](=O)[O-])c2cc1OC
Ans. medium

Qu. Kindly identify the class of COc1cc2c(C)nc(OS(=O)(=O)N(C)C)c(N)c2cc1OC [Cmpd 43] .
Ans. medium

Qu. In plain terms, what class is CCCCOc1cc2c(C)nc(OC(C)=O)c([N+](=O)[O-])c2cc1OC ?
Ans. high

Qu. Classify this compound: CCOc1cc2c(C)nc(OC(=O)N(CC)CC)c(N)c2cc1OC
Ans. low

Just for reference, patent US4880817A is where these values come from.
